# Test system: HOS (human osteosarcoma)
# assay.procedure: Calcein AM cytotoxicity assay, HOS
# Type: cell-based
# experimental.setup: 3-day Calcein-AM assay, read-out: Cytotoxic activity IC50
# Text: Because toxic compounds negatively influence metabolic processes of cells, many standard cytotoxicity assays are based on measurement of metabolisation rate of various artificial substrates. Resulting product is then quantified, for example, by means of spectrometry. The assays can be easily modified for use in 96-well plates. For evaluation of cytotoxicity of the […] of this invention, a microtiter assay based on quantification of metabolisation of Calcein AM was used. […]
endpoint.label: IC50

Oc1ccc(CNc2ncnc3nc[nH]c23)cc1 [para-topolin, 6-(4-Hydroxybenzylamino) purine] ... > 167 µM

###

# Tested on: HL-60 (promyelocytic leukaemia)
# assay.procedure: Calcein AM cytotoxicity assay, HL60
# Assay type: cell-based
# experimental.setup: HL60, 3-day Calcein-AM assay; read-out: Cytotoxic activity IC50
endpoint.label: IC50

Oc1ccc(CNc2ncnc3nc[nH]c23)cc1 [para-topolin, 6-(4-Hydroxybenzylamino) purine] ... > 167 µM

###

# assay.procedure: Solubility in various organic solvents
# Type: physicochemical
# experimental.setup: ethanol, organic solvent or mixture, thermodynamic from solid, ethanol; read-out: Solubility
endpoint.label: Solubility (µg/mL)

Oc1ccc(CNc2ncnc3nc[nH]c23)cc1 [para-topolin, 6-(4-Hydroxybenzylamino) purine] ... 250

###

# Tested on: MCF-7 (breast adenocarcinoma)
# assay.procedure: Calcein AM cytotoxicity assay, MCF7
# Format: cell-based
# experimental.setup: MCF7, 3-day Calcein-AM assay; read-out: Cytotoxic activity IC50
endpoint.label: IC50

Oc1ccc(CNc2ncnc3nc[nH]c23)cc1 [para-topolin, 6-(4-Hydroxybenzylamino) purine] ... > 167 µM

###

# assay.procedure: Solubility in various organic solvents
# Type: physicochemical
# experimental.setup: DMSO, organic solvent or mixture, thermodynamic from solid, DMSO; read-out: Solubility
endpoint.label: Solubility (µg/mL)

Oc1ccc(CNc2ncnc3nc[nH]c23)cc1 [para-topolin, 6-(4-Hydroxybenzylamino) purine] ... 6660

###

# assay.procedure: Calcein AM cytotoxicity assay, HELA
# Type: cell-based
# experimental.setup: human, HeLa cells (cervical carcinoma), 3-day Calcein-AM assay, read-out: Cytotoxic activity IC50
Structures can show the parent of a compound that is named as a salt.
endpoint.label: IC50 at 72 h

Oc1ccc(CNc2ncnc3nc[nH]c23)cc1 [para-topolin mesylate] ... > 167 µM
